- METHOD: Stability of the five compounds in SD rat plasma (QC samples, UHPLC-ESI-MS/MS)
- Format: in vitro ADME
- ASSAY_CONTEXT: SD rat plasma, nominal 5000 ng/mL, 7 days at -80°C, n=5
OBSERVABLE: stability, mean ± SD (measured concentration) (ng/mL)

[[record]]
molecule = "C=C(C(=O)O)[C@@H]1CC[C@@H](C)[C@@H]2CCC(C)=C[C@@H]21"
measured_value = 4738

[[record]]
molecule = "CC1=C[C@H]2[C@@H](CC1)[C@H](C)CC[C@H]2[C@@H](C)C(=O)O [DHAA, Dihydroartemisinic acid]"
measured_value = 4814

[[record]]
molecule = "C[C@@H]1CC[C@H]2[C@@H](C)C(=O)O[C@@H]3O[C@@]4(C)CC[C@@H]1[C@]32O4"
measured_value = 4705

[[record]]
molecule = "C=C1CC[C@@H]2[C@H]3[C@@H](CC[C@H]2C)[C@@H](C)C(=O)O[C@H]13"
measured_value = 4563

